- MEASURED_ON: 5-HT1D (Homo sapiens, UniProt P28221)
- Sequence (P28221 whole entry, species assumed): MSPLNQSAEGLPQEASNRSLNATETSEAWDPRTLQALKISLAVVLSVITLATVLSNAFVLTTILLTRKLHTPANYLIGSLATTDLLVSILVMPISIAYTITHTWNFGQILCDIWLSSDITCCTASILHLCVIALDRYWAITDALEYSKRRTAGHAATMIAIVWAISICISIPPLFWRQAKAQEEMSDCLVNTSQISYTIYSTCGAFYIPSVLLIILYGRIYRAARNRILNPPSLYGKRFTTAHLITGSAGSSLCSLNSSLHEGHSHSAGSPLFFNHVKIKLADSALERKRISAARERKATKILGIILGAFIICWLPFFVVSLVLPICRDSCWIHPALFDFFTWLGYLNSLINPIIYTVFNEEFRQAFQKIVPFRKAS
METRIC_NAME: Ki

In: Any idea what Ki came out for Cn1cc(CN2CCN(c3nccnc3-c3cccc(F)c3F)CC2)cn1 [Example 142] on 5-HT1D (Homo sapiens, UniProt P28221)?
Out: > 2400 nM

* * *

- MEASURED_ON: alpha 1 adrenergic
- Construct: Ki; other: alpha 1 adrenergic (first line, r12)
- EXPERIMENT: Radioligand receptor binding assay, alpha 1 adrenergic (first line)
- EXPERIMENTAL_PARAMETERS: alpha 1 adrenergic (first line, r12)
pKi: −log10 of the molar value.
METRIC_NAME: pKi

In: Bench note: what pKi did Cn1cc(CN2CCN(c3nccnc3-c3cccc(F)c3F)CC2)cn1 [Example 142] show?
Out: < 5.84

* * *

- MEASURED_ON: 5-HT5 (Homo sapiens)
- Sequence (P47898 whole entry, species assumed): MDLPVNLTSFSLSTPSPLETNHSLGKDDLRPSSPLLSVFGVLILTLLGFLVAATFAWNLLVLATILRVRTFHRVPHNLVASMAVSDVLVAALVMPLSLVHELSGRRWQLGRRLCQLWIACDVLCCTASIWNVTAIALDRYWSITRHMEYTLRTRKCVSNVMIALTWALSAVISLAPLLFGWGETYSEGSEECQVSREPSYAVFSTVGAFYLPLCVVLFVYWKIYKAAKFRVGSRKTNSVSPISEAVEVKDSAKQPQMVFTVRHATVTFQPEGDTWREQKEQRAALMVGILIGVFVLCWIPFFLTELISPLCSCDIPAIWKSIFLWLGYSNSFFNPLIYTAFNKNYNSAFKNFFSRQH
pKi: −log10 of the molar value.
METRIC_NAME: pKi

In: Item `Cn1cc(CN2CCN(c3nccnc3-c3cccc(F)c3F)CC2)cn1` with 5-HT5 (Homo sapiens) - pKi?
Out: < 5.15

* * *

- MEASURED_ON: 5-HT2B (Homo sapiens, UniProt P41595)
- Sequence (P41595 whole entry, species assumed): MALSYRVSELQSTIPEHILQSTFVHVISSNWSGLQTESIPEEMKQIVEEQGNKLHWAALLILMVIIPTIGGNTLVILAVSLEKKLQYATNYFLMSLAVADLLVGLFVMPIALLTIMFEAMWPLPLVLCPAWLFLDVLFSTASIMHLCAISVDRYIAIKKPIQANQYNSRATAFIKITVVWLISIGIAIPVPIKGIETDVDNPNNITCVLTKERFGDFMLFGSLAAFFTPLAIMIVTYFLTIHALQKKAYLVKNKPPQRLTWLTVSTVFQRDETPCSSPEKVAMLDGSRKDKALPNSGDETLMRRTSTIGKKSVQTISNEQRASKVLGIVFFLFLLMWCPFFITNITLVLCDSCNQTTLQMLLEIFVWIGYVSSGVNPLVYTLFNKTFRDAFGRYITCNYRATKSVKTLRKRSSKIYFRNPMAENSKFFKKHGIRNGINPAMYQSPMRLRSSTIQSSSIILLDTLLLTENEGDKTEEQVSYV
pKi: −log10 of the molar value.
METRIC_NAME: pKi

In: Param item = `Cn1cc(CN2CCN(c3nccnc3-c3cccc(F)c3F)CC2)cn1` ; retrieve measured pKi.
Out: < 5.50

* * *

- MEASURED_ON: alpha 1 adrenergic
- Construct: Ki; other: alpha 1 adrenergic (second line, r13)
- EXPERIMENT: Radioligand receptor binding assay, alpha 1 adrenergic (second line)
- EXPERIMENTAL_PARAMETERS: alpha 1 adrenergic (second line, r13)
METRIC_NAME: Ki

In: Give the measured Ki of Cn1cc(CN2CCN(c3nccnc3-c3cccc(F)c3F)CC2)cn1 [Example 142] .
Out: 933 nM

* * *

- MEASURED_ON: 5-HT1A (Homo sapiens)
- Construct: expressed in transfected cells
- Sequence (P08908 whole entry, species assumed): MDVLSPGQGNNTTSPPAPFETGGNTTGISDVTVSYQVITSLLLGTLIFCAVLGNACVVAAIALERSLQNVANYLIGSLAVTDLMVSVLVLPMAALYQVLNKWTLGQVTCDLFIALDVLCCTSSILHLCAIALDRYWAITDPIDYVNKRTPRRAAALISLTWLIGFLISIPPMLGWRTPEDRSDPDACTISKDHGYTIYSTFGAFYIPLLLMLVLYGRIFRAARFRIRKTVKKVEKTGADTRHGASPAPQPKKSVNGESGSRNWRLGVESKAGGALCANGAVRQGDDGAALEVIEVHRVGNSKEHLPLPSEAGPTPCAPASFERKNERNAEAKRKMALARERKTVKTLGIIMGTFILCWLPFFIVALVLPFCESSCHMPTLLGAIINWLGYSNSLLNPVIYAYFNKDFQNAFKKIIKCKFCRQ
- EXPERIMENT: Radioligand receptor binding assay, 5-HT1A
METRIC_NAME: pKi
On this scale, pKi is minus log10 of a concentration expressed in M (mol/L).

In: Which pKi is listed for `Cn1cc(CN2CCN(c3nccnc3-c3cccc(F)c3F)CC2)cn1` ?
Out: 5.90

Where do the numbers come from? From patent US8202873B2.
